B1: BCL2L13 (parent)
chain: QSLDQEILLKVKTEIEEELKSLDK

- Variants of: B1
- experimentSummary: protein stability index of a GFP-peptide fusion (GPS, HEK-293T) (PSI 1-6); higher = more stable;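 further: lentivirally expressed fusions sorted by FACS into six bins by GFP to DsRed ratio, PSI derived from sequencing read proportions per bin multiplied by bin number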
- runConditions: c terminus: a fixed tail appended
readoutKind: protein stability index
One number for each entry.

sequence: KSLDQEILLKVKTEIEEELKSLDK [Q1K]
measurement: 4.38
--
sequence: QSLDQEILLKVNTEIEEELKSLDK [K12N]
measurement: 5.97
--
sequence: QSLDQEILLKVKTEIEEELKDLDK [S21D]
measurement: 5.47

Working through the 8 variants below one at a time, give protein stability index for each.
1. QSLDQEILKKVKTEIEEELKSLDK [L9K]
2. QSCDQEILLKVKTEIEEELKSLDK [L3C]
3. QSLDQEILLCVKTEIEEELKSLDK [K10C]
4. QSLDQEILLKVKTEIEEEAKSLDK [L19A]
5. QSLDQEILLKVKTEIEEELKSQDK [L22Q]
6. QSLDQEILLKVLTEIEEELKSLDK [K12L]
7. QSLDQEMLLKVKTEIEEELKSLDK [I7M]
8. QSLDQEILLKVSTEIEEELKSLDK [K12S]

[4.81, 4.97, 4.16, 5.68, 5.3, 2.13, 5.3, 4.61]

# batch: return protein stability index for each of the 3 variants below
1. QSLAQEILLKVKTEIEEELKSLDK [D4A]
2. QSLDQENLLKVKTEIEEELKSLDK [I7N]
3. QSLDQRILLKVKTEIEEELKSLDK [E6R]

4.27
5.33
3.67

For every record below, what is its protein stability index?
1. QSWDQEILLKVKTEIEEELKSLDK [L3W]
2. QSLDQEILLKVKTEIEHELKSLDK [E17H]

1: 4.66; 2: 4.51

The reported numbers originate from the supplement of paper PMC10567573.
